This collection of values is drawn from PubChem BioAssay (EPA / NIEHS).

- Read-out: Vascular endothelial growth factor receptor 2 (Homo sapiens) (UniProt P35968)
- ASSAY_SUMMARY: BSK_4H_VEGFRII: BioMAP Diversity Plus: 4H Assay for Vascular endothelial growth factor receptor 2 (VEGFR2) Biomarker Activity (AID 2283031)
- STATED_CONDITIONS: primary human endothelial cells (HUVEC); actives raise or lower the signal
The source made the active and inactive calls. Rule for the calls: active = hit-call score of the fitted dose curve at least 0.9, where 1 is the maximum; inactive = score below 0.9.
Select the correct class. Options are T (active), F (inactive) and nothing else.

Study these solved cases before continuing.
O=[N+]([O-])O
F
COCC(=O)N(c1c(C)cccc1C)N1CCOC1=O
F
C=CC(=O)OCC(CC)CCCC (centres undefined)
F

Prompt: Called result for O=P1(NCCCl)OCCCN1CCCl (centres undefined)
Response: F

Prompt: Called result for `CC(C)COP(=O)(OCC(C)C)OCC(C)C`
Response: F

Prompt: Called result for `N#CCCCCC#N`
Response: F
